- TEST: Metabolic stability in rat microsomes, Phase II assay
- Format: in vitro ADME
- MEASUREMENT CONTEXT: pH 7.4; rat liver microsomes 0.5 mg/mL, Alamethicin activated, UDPGA, compound 1 μM, 37° C.; read-out: Metabolic Stability (t1/2, min) Phase2
One threshold, 50 min, splits the recorded half-life at 1 μM values: lower ones are label 1, equal or higher ones are label 0.

Just wondering, is half-life at 1 μM of O=C(c1sc(-c2cccc(F)c2)nc1O)C1CCCN1 (stereo not drawn) below 50 min?
label 0

Just wondering, is half-life at 1 μM of O=C(c1cccs1)c1sc(-c2cccc(F)c2)nc1O below 50 min?
label 0

Just wondering, is half-life at 1 μM of O=C(c1sc(-c2cccc(F)c2)nc1O)n1cccc1 below 50 min?
label 1

Just wondering, is half-life at 1 μM of O=C(c1sc(-c2cccc(F)c2)nc1O)N1CC2CCCC2O1 (stereo not drawn) below 50 min?
label 0

Just wondering, is half-life at 1 μM of O=C(c1sc(-c2cccc(F)c2)nc1O)n1ccnn1 below 50 min?
label 0

Just wondering, is half-life at 1 μM of O=C(c1sc(-c2cccc(F)c2)nc1O)C1CCCO1 (stereo not drawn) below 50 min?
label 1

Just wondering, is half-life at 1 μM of Cn1nnnc1C(=O)c1sc(-c2cccc(F)c2)nc1O below 50 min?
label 0

Just wondering, is half-life at 1 μM of O=C(c1ccc[nH]1)c1sc(-c2cccc(F)c2)nc1O below 50 min?
label 0

Just wondering, is half-life at 1 μM of O=C(c1sc(-c2cccc(F)c2)nc1O)n1cccn1 below 50 min?
label 0

Just wondering, is half-life at 1 μM of O=C(c1sc(-c2cccc(F)c2)nc1O)N1CCCCC1 below 50 min?
label 0

Just wondering, is half-life at 1 μM of O=C(c1ccncc1)c1sc(-c2cccc(F)c2)nc1O below 50 min?
label 1

Just wondering, is half-life at 1 μM of O=C(c1sc(-c2ccccc2O)nc1O)N1CCCO1 below 50 min?
label 0

Just wondering, is half-life at 1 μM of O=C(c1sc(-c2ccccc2O)nc1O)C1CCCO1 (stereo not drawn) below 50 min?
label 1

Just wondering, is half-life at 1 μM of O=C(c1sc(-c2cccc(F)c2)nc1O)N1CC2(CC2)CO1 below 50 min?
label 0

Just wondering, is half-life at 1 μM of O=C(c1sc(-c2ccccc2O)nc1O)N1CCOC1 below 50 min?
label 1

Just wondering, is half-life at 1 μM of O=C(c1sc(-c2cccc(F)c2)nc1O)N1CCOCC1 below 50 min?
label 1

Just wondering, is half-life at 1 μM of O=C(c1sc(-c2cccc(F)c2)nc1O)N1CCOC1 below 50 min?
label 0

Just wondering, is half-life at 1 μM of Cn1cccc1C(=O)c1sc(-c2cccc(F)c2)nc1O below 50 min?
label 0
